# Test system: Respiratory syncytial virus
# Experiment summary: Antiviral activity against Respiratory syncytial virus
# Format: functional, organism-based
The source made the active and inactive calls. The rule behind the calls is not given here.

{"Structure": "C=C(C)[C@@H]1CC[C@]2(C(=O)O)CC[C@]3(C)[C@H](CC[C@@H]4[C@@]5(C)Cc6nnn(Cc7ccc(N(C)C)cc7)c6C(C)(C)[C@@H]5CC[C@]43C)[C@@H]12", "Experimental target": "Respiratory syncytial virus", "Activity": "inactive"}
{"Structure": "C=C(C)[C@@H]1CC[C@]2(C(=O)O)CC[C@]3(C)[C@H](CC[C@@H]4[C@@]5(C)Cc6nnn([C@@H](C)c7ccccc7)c6C(C)(C)[C@@H]5CC[C@]43C)[C@@H]12", "Experimental target": "Respiratory syncytial virus", "Activity": "inactive"}
{"Structure": "C=C(C)[C@@H]1CC[C@]2(C(=O)O)CC[C@]3(C)[C@H](CC[C@@H]4[C@@]5(C)Cc6nnn(Cc7ccccc7)c6C(C)(C)[C@@H]5CC[C@]43C)[C@@H]12", "Experimental target": "Respiratory syncytial virus", "Activity": "inactive"}
{"Structure": "C=C(C)[C@@H]1CC[C@]2(C(=O)O)CC[C@]3(C)[C@H](CC[C@@H]4[C@@]5(C)Cc6nnn(CCO)c6C(C)(C)[C@@H]5CC[C@]43C)[C@@H]12", "Experimental target": "Respiratory syncytial virus", "Activity": "inactive"}
{"Structure": "C=C(C)[C@@H]1CC[C@]2(C(=O)O)CC[C@]3(C)[C@H](CC[C@@H]4[C@@]5(C)Cc6nnn(Cc7ccco7)c6C(C)(C)[C@@H]5CC[C@]43C)[C@@H]12", "Experimental target": "Respiratory syncytial virus", "Activity": "inactive"}

----------
# selectivity ratio at 120 h values compiled below
# Experiment summary: Selectivity index, ratio of CC50 for cytotoxicity against mock-infected human embryonic lung fibroblast cells incubated for 5 days by MTS assay to EC50 for antiviral activity against Human coronavirus 229E infected in human embryonic lung fibroblast cells assessed as reduction in virus-induced cytopathic effect incubated for 5 days by MTS cell viability assay
# Assay type: toxicity, cell-based
# Particulars: time 5 day, read-out: Ratio CC50/EC50

{"Structure": "C=C(C)[C@@H]1CC[C@]2(C(=O)O)CC[C@]3(C)[C@H](CC[C@@H]4[C@@]5(C)Cc6nnn(Cc7ccc(C(F)(F)F)cc7)c6C(C)(C)[C@@H]5CC[C@]43C)[C@@H]12", "Comparator": ">", "selectivity ratio at 120 h": 10}
{"Structure": "C=C(C)[C@@H]1CC[C@]2(C(=O)O)CC[C@]3(C)[C@H](CC[C@@H]4[C@@]5(C)Cc6nnn(Cc7ccc(C)cc7)c6C(C)(C)[C@@H]5CC[C@]43C)[C@@H]12", "Comparator": "=", "selectivity ratio at 120 h": 9}
{"Structure": "C=C(C)[C@@H]1CC[C@]2(C(=O)O)CC[C@]3(C)[C@H](CC[C@@H]4[C@@]5(C)Cc6nnn(CCO)c6C(C)(C)[C@@H]5CC[C@]43C)[C@@H]12", "Comparator": "=", "selectivity ratio at 120 h": 1.5}

----------
# Experiment summary: Cytotoxicity against mock-infected human embryonic lung fibroblast cells incubated for 5 days by MTS assay
# Format: cell-based
# Particulars: time 5 day
Cut-off 60 µM on CC50 at 120 h: below means rule met, at or above means rule not met.

{"Structure": "C=C(C)[C@@H]1CC[C@]2(CO)CC[C@]3(C)[C@H](CC[C@@H]4[C@@]5(C)CC[C@H](O)C(C)(C)[C@@H]5CC[C@]43C)[C@@H]12", "Cat": "rule met"}
{"Structure": "C=C(C)[C@@H]1CC[C@]2(C(=O)O)CC[C@]3(C)[C@H](CC[C@@H]4[C@@]5(C)Cc6nnn(CC7CCCCC7)c6C(C)(C)[C@@H]5CC[C@]43C)[C@@H]12", "Cat": "rule not met"}
{"Structure": "C=C(C)[C@@H]1CC[C@]2(C(=O)O)CC[C@]3(C)[C@H](CC[C@@H]4[C@@]5(C)Cc6nnn(CCc7c[nH]c8ccc(OC)cc78)c6C(C)(C)[C@@H]5CC[C@]43C)[C@@H]12", "Cat": "rule met"}
{"Structure": "C=C(C)[C@@H]1CC[C@]2(C(=O)O)CC[C@]3(C)[C@H](CC[C@@H]4[C@@]5(C)Cc6nnn(Cc7ccco7)c6C(C)(C)[C@@H]5CC[C@]43C)[C@@H]12", "Cat": "rule met"}
{"Structure": "C=C(C)[C@@H]1CC[C@]2(C(=O)O)CC[C@]3(C)[C@H](CC[C@@H]4[C@@]5(C)Cc6nnn(Cc7ccc(C)cc7)c6C(C)(C)[C@@H]5CC[C@]43C)[C@@H]12", "Cat": "rule met"}
